System: NCI/ADR-RES ovarian
Test: NCI-60 one-dose screen, 48 h
Conditions: 10 µM unless noted
Procedure: Growth inhibition of the NCI/ADR-RES human […] tumor cell line is measured as a screen for anti-cancer activity. Cells are grown in 96 well plates and exposed to the test compound for 48 hours. Compounds are tested at a single concentration, which is 10^-5 M for most compounds. The reported endpoint is percent growth (GI% or GIPRCNT), where numbers from 0 - 100% represent growth inhibition, and numbers from -100% - 0 represent cell death. For example, a value of 40 represents 60% growth inhibition. […]
About 83,000 compounds went through this panel and 20% of them were active in at least one assay; those are over-represented in the sample as a whole. Calls of active or inactive are those of the source. Rule for the calls: active = growth percent below 10; inactive = the rest.
Give one outcome, nothing more. List: active, inactive

Can you look up the reported call for `CNC(=O)c1ccc(Nc2ncc(C(F)(F)F)c(NCc3nccnc3N(C)S(C)(=O)=O)n2)cc1` for me?
inactive

Can you look up the reported call for COc1cc(NC2CCC(=O)N2c2ccc(Cl)cc2Cl)cc(OC)c1OC (centres undefined) for me?
inactive

Can you look up the reported call for `COc1cc2ncnc(Nc3ccc(F)c(Cl)c3)c2cc1NC(=O)/C=C/CN1CCCCC1` for me?
active

Can you look up the reported call for `CCN1CCN(Cc2ccc(Cc3ncc(F)c(-c4cc(F)c5nc(C)n(C(C)C)c5c4)n3)nc2)CC1` for me?
inactive

Can you look up the reported call for `CN(C)C[C@@H]1CCn2cc(c3ccccc32)C2=C(C(=O)NC2=O)c2cn(c3ccccc23)CCO1` for me?
active

Can you look up the reported call for `Cn1c(Nc2ccc(C(F)(F)F)cc2)nc2cc(Oc3ccnc(-c4ncc(C(F)(F)F)[nH]4)c3)ccc21` for me?
inactive

Can you look up the reported call for O=C1C=CC2(NN=C(c3ccccc3)N2c2ccccc2)c2cccc(O)c21 (centres undefined) for me?
inactive

Can you look up the reported call for `Cc1ccc(-[n+]2c3cc(N)c(C)cc3nc3cc(C)c(Nc4ccccc4)cc32)cc1` for me?
active

Can you look up the reported call for `C=C1CC[C@@H]2[C@](C)(COC(C)=O)[C@H](OC(C)=O)CC[C@@]2(C)[C@@H]1C/C=C1/C(=O)OC[C@H]1OC(C)=O` for me?
inactive
